System Under Test: human TLR2 (Homo sapiens, UniProt O60603)
Construct: host or cells: recombinant HEK-293-TLR cell lines
Sequence (O60603 21-784): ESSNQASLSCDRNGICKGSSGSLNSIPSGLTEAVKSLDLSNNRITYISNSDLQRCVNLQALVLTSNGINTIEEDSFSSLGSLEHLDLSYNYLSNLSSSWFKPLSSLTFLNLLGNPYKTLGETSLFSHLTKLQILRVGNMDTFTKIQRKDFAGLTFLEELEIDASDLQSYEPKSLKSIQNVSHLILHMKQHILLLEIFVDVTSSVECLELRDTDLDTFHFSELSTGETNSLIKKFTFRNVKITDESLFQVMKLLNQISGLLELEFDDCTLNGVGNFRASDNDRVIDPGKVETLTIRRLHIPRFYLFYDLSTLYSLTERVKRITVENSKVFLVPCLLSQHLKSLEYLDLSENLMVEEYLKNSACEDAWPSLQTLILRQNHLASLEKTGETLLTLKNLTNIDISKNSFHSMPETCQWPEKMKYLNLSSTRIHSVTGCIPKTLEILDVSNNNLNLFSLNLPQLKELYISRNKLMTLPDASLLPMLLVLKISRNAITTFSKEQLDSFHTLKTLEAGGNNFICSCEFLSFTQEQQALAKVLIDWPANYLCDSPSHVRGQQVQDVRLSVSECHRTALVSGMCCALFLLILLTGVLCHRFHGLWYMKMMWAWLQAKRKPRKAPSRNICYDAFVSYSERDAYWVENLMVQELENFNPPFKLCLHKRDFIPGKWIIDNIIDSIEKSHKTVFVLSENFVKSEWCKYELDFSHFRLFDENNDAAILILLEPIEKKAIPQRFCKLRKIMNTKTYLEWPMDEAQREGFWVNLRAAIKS
Procedure Details: TLR2 reporter assay (HEK-293-TLR, SEAP)
Type: cell-based
Condition Label: 20 μM
Experimental: Samples and controls were tested in duplicate on recombinant HEK-293-TLR cell lines using a cell reporter assay at Invivogen using their standard assay conditions. […] Compounds were tested using a TLR2 reporter assay (see general methods) that measured for stimulation of the TLR2 receptor. Stimulatory effect was measured as an increase in optical density (OD) due to release of secreted alkaline phosphatase (SEAP) and is shown in table 4: […]
Recorded Endpoint: OD after addition of 20 μM test article (OD)
State just the number; it will be interpreted in OD.

# count of solved cases: 4
[
  {
    "Compound": "CC[C@H]1OC(=O)[C@H](C)[C@@H](O[C@H]2C[C@@](C)(OC)[C@@H](O)[C@H](C)O2)[C@H](C)[C@@H](O[C@@H]2O[C@H](C)C[C@H](N(C)C)[C@H]2O)[C@](C)(O)C[C@@H](C)C(=O)[C@H](C)[C@@H](O)[C@]1(C)O [Erythromycin, reference compound]",
    "System Under Test": "human TLR2 (Homo sapiens, UniProt O60603)",
    "OD after addition of 20 μM test article, OD": 0.045
  },
  {
    "Compound": "CC[C@H]1OC(=O)[C@H](C)[C@@H](O[C@H]2CC(N(C)C)[C@H](O)C(C)O2)[C@H](C)[C@@H](O)[C@](C)(O)C[C@@H](C)C(=O)[C@H](C)[C@@H](O)[C@H]1C (some centres unmarked)",
    "System Under Test": "human TLR2 (Homo sapiens, UniProt O60603)",
    "OD after addition of 20 μM test article, OD": "−0.026"
  },
  {
    "Compound": "CC[C@H]1OC(=O)[C@H](C)[C@@H](O[C@H]2CC(N(C)C)[C@H](O)C(C)O2)[C@H](C)[C@@H](O)[C@](C)(O)C[C@@H](C)N(C)C[C@H](C)[C@@H](O)[C@]1(C)O (some centres unmarked)",
    "System Under Test": "human TLR2 (Homo sapiens, UniProt O60603)",
    "OD after addition of 20 μM test article, OD": 0.234
  },
  {
    "Compound": "CC[C@H]1OC(=O)[C@H](C)[C@@H](O[C@H]2C[C@@H](N(C)C)[C@H](O)[C@@H](C)O2)[C@H](C)[C@@H](O)[C@](C)(O)C[C@@H](C)CN(C)[C@H](C)[C@@H](O)[C@]1(C)O",
    "System Under Test": "human TLR2 (Homo sapiens, UniProt O60603)",
    "OD after addition of 20 μM test article, OD": 0.458
  }
]

Now consider a different compound.
GET /value?item= CC[C@H]1OC(=O)[C@H](C)[C@@H](O[C@H]2C[C@@](C)(OC)[C@@H](O)[C@H](C)O2)[C@H](C)[C@@H](O[C@@H]2O[C@H](C)C[C@H](N(C)C)[C@H]2O)[C@](C)(O)C[C@@H](C)CN(C)[C@H](C)[C@@H](O)[C@]1(C)O [Azithromycin, reference compound] &field=OD after addition of 20 μM test article returns 0.031

---

System Under Test: human TLR2 (Homo sapiens, UniProt O60603)
Construct: host or cells: recombinant HEK-293-TLR cell lines
Procedure Details: TLR2 reporter assay (HEK-293-TLR, SEAP)
Assay type: cell-based
Condition Label: 5 μM
Recorded Endpoint: OD after addition of 5 μM test article (OD)
State just the number; it will be interpreted in OD.

# count of solved cases: 4
[
  {
    "Compound": "CC[C@H]1OC(=O)[C@H](C)[C@@H](O[C@H]2C[C@@H](N(C)C)[C@H](O)[C@@H](C)O2)[C@H](C)[C@@H](O)[C@](C)(O)C[C@@H](C)CN(C)[C@H](C)[C@@H](O)[C@]1(C)O",
    "System Under Test": "human TLR2 (Homo sapiens, UniProt O60603)",
    "OD after addition of 5 μM test article / OD": 0.111
  },
  {
    "Compound": "CC[C@H]1OC(=O)[C@H](C)[C@@H](O[C@H]2C[C@@](C)(OC)[C@@H](O)[C@H](C)O2)[C@H](C)[C@@H](O[C@@H]2O[C@H](C)C[C@H](N(C)C)[C@H]2O)[C@](C)(O)C[C@@H](C)CN(C)[C@H](C)[C@@H](O)[C@]1(C)O [Azithromycin, reference compound]",
    "System Under Test": "human TLR2 (Homo sapiens, UniProt O60603)",
    "OD after addition of 5 μM test article / OD": 0.029
  },
  {
    "Compound": "CC[C@H]1OC(=O)[C@H](C)[C@@H](O[C@H]2C[C@@](C)(OC)[C@@H](O)[C@H](C)O2)[C@H](C)[C@@H](O[C@@H]2O[C@H](C)C[C@H](N(C)C)[C@H]2O)[C@](C)(O)C[C@@H](C)C(=O)[C@H](C)[C@@H](O)[C@]1(C)O [Erythromycin, reference compound]",
    "System Under Test": "human TLR2 (Homo sapiens, UniProt O60603)",
    "OD after addition of 5 μM test article / OD": 0.035
  },
  {
    "Compound": "CC[C@H]1OC(=O)[C@H](C)[C@@H](O[C@H]2CC(N(C)C)[C@H](O)C(C)O2)[C@H](C)[C@@H](O)[C@](C)(O)C[C@@H](C)N(C)C[C@H](C)[C@@H](O)[C@]1(C)O (some centres unmarked)",
    "System Under Test": "human TLR2 (Homo sapiens, UniProt O60603)",
    "OD after addition of 5 μM test article / OD": 0.054
  }
]

Now consider a different compound.
GET /value?item= CC[C@H]1OC(=O)[C@H](C)[C@@H](O[C@H]2CC(N(C)C)[C@H](O)C(C)O2)[C@H](C)[C@@H](O)[C@](C)(O)C[C@@H](C)C(=O)[C@H](C)[C@@H](O)[C@H]1C (some centres unmarked) &field=OD after addition of 5 μM test article returns −0.043
